Source listed as patent US20180305450A1.

# ASSAY TARGET: T1, recombinant biotinylated human PAR2 extracellular domain (residues 1-75), N-terminal AviTag, C-terminal Flag … (human, UniProt P55085 26-75, biotin on the AviTag (enzymatic biotinylation))
# T1 construct: also called Bio-human-PAR2 ECD; human PAR2 ECD; not shown: N-terminal AviTag (Avidity LLC); C-terminal Flag and poly Histidine tags
# T1 sequence (P55085 26-75): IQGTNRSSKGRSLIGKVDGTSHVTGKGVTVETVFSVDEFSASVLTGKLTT
# ASSAY METHOD TEXT: HTRF competition with Dylight650-Par0067 IgG, IgG
Strictly below 7 fold in Fold IC50 pH 7.4 (Variant v Par0067): rule met. Otherwise: rule not met.

Example cases with answers are listed next.
- PaB670160 IgG (antibody, V domains shown, IgG1-TM (L234F, L235E, P331S), human lambda light chain) VH: EVQLLESGGGLVQPGGSLRLSCAASGFTFSSYAMNWVRQAPGKGLEWVSTISYSGSLISYADSVKGRFTISRDNSKNTLYLQMNSLRAEDTAVYYCARINHDPMDVWGQGTLVTVSS VL: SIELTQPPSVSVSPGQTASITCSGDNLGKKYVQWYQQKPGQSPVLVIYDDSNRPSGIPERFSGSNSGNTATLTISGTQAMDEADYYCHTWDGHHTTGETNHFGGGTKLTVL: rule not met
- PaB670128 IgG (antibody, V domains shown, IgG1-TM (L234F, L235E, P331S), human lambda light chain; also called ZZ1RUE-A01) VH: EVQLLESGGGLVQPGGSLRLSCAASGFTFSSYAMNWVRQAPGKGLEWVSTISYHGHHISYADSHHHRFTISRDNSKNTLYLQMNSLRAEDTAVYYCARIHHDPMDVWGQGTLVTVSS VL: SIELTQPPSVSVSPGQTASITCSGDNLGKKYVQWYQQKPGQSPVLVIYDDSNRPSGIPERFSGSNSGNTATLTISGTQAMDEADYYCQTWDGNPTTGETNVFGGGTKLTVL: rule not met
- PaB670143 IgG (antibody, V domains shown, IgG1-TM (L234F, L235E, P331S), human lambda light chain) VH: EVQLLESGGGLVQPGGSLRLSCAASGFTFSSYAMNWVRQAPGKGLEWVSTISYHGHHISYADSHHHRFTISRDNSKNTLYLQMNSLRAEDTAVYYCARINNDPMDVWGQGTLVTVSS VL: SIELTQPPSVSVSPGQTASITCSGDNLGKKYVQWYQQKPGQSPVLVIYDDSNRPSGIPERFSGSNSGNTATLTISGTQAMDEADYYCQTWDGNPTHGETNVFGGGTKLTVL: rule met

With those in mind, consider the next binder.
Dear reviewer, please state whether PaB670148 IgG (antibody, V domains shown, IgG1-TM (L234F, L235E, P331S), human lambda light chain) VH: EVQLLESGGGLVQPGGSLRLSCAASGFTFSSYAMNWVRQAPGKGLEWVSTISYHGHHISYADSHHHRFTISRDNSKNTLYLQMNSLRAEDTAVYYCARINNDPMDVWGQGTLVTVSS VL: SIELTQPPSVSVSPGQTASITCSGDNLGKKYVQWYQQKPGQSPVLVIYDDSNRPSGIPERFSGSNSGNTATLTISGTQAMDEADYYCHTWHHHPTHGEHNVFGGGTKLTVL has Fold IC50 pH 7.4 (Variant v Par0067) strictly beneath 7 fold.
rule not met
